Target: alpha-1A adrenoceptors expressed in CHO-K1 cells (clone 13) (Homo sapiens)
Sequence (P35348 1-466): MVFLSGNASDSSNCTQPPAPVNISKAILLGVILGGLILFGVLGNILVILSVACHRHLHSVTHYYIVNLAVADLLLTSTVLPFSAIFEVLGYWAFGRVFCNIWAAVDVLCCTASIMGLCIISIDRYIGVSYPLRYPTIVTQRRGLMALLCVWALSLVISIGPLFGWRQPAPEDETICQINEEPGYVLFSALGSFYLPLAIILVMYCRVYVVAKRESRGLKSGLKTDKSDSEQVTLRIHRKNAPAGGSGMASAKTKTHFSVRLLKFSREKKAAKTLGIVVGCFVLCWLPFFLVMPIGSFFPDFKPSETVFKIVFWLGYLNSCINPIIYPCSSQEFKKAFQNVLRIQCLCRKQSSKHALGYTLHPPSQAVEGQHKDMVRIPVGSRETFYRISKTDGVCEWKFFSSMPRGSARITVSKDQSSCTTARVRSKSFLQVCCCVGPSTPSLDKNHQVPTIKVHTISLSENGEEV
Experiment: Functional assay for alpha-1A/L agonist activity (FLIPR, Fluo-3 intracellular calcium)
Details: CHO-K1 cells expressing alpha-1A adrenoceptors, FLIPR calcium fluorescence, room temperature
pEC50: −log10 of the molar value.
Rule: MET for pEC50 not less than 8, NOT MET for anything less.

| SMILES_RECORD | GROUP_LABEL |
| --- | --- |
| Cc1c(S(C)(=O)=O)c2cccc(C(F)(F)F)c2n1CC1=NCCN1 | NOT MET |
| CS(=O)(=O)c1cn(CC2=NCCN2)c2ccccc12 | MET |
| Cc1c(S(C)(=O)=O)c2ccccc2n1CC1=NCCN1 | MET |
| Cc1c(S(C)(=O)=O)c2c(S(C)(=O)=O)cccc2n1CC1=NCCN1 | NOT MET |
| Cc1ccc2c(c1)c(S(C)(=O)=O)c(C)n2CC1=NCCN1.Cl | NOT MET |
| Cc1c(S(C)(=O)=O)c2ccc(S(C)(=O)=O)cc2n1CC1=NCCN1 | NOT MET |

Data credit: patent US6852726B2
